Test system: 786-0 renal
experiment: NCI-60 one-dose screen, 48 h (100 = growth as untreated, 0 = no growth, -100 = all killed)
condition.summary: 10 µM unless noted
This is part of a sample that, as a whole, favours compounds with a hit. Of some 83,000 tested, about 20% had one in any assay.
measured.property: growth (%)
# number only, unit % dropped from output

Example cases with answers are listed next.
1. CC(=O)Nc1scc[n+]1Cc1ccccc1 : 102
2. Fc1ccc(-c2nc(-c3nc4ncccc4[nH]3)cc3c2[nH]c2ccccc23)cc1F : 95.2
3. C=C1C(=O)O[C@@H]2[C@@H]3O[C@@](C)(CC/C=C(\C)CCC[C@@H]2C)[C@H](O)C[C@@H]13 : 79.1
4. O=[N+]([O-])c1cc(S(=O)(=O)Oc2ccccc2)ccc1Cl : 24.1
5. COc1cc(-c2nc(N=Nc3c(O)[nH]c4ccc(Br)cc34)[nH]c(=O)c2C#N)cc(OC)c1OC : 99.8
6. COc1ccc(S(=O)(=O)NCCCNc2nccc(-n3ccc4cccnc43)n2)cc1 : 97.6
7. C=C1CCC2C3(C)COC(C)(C)OC3CCC2(C)C1C/C=C1/C(=O)OCC1Oc1ccccc1OC (stereo not given) : 99.9
8. COc1ccc(N2CCN(Cc3cc(C(=O)/C=C/c4c[nH]c5ccccc45)ccc3O)CC2)cc1 : 105

Return the recorded growth value; entry: "Cc1ccc(C(=O)C2=Cc3cc4ccccc4n3Cc3cnnn32)cc1"
94.6

Return the recorded growth value; entry: "COc1ccc2c(c1)cn1c3ccc(OC)cc3[nH]c(=O)c21"
-88.3
